Reported half-life at 1 µM values are given for each entry in this list.
- test details: Metabolic stability in mouse liver microsomes
- Type: in vitro ADME
- settings: pH 7.4
Numbers only; they are read as min.

Query block: Which value of half-life at 1 µM has been reported for O=C(Nc1ccc(OC(F)(F)F)cc1)c1cc(Cl)c(F)cc1O [Compound 21] in the records?
Result block: 22.6

Query block: Which value of half-life at 1 µM has been reported for O=C(Nc1ccc([N+](=O)[O-])cc1Cl)c1cc(Cl)ccc1O [NIC, niclosamide, reference compound] in the records?
Result block: 5.86

###

Reported half-life at 1 µM values are given for each entry in this list.
- test details: Metabolic stability in human liver microsomes
- Format: in vitro ADME
- settings: pH 7.4
Numbers only; they are read as h.

{"columns": ["compound", "value observed"],
 "data": [
  ["O=C(Nc1ccc(OC(F)(F)F)cc1)c1cc(Cl)c(F)cc1O", 2]
]}

Attention now shifts to the item below.
Query block: Which value of half-life at 1 µM has been reported for O=C(Nc1ccc([N+](=O)[O-])cc1Cl)c1cc(Cl)ccc1O [NIC, niclosamide, reference compound] in the records?
Result block: 0.222
